Some compounds, each annotated with its measured IC50.
assay-target: recombinant human mPGES-1 (Homo sapiens, UniProt O14684)
test-description: mPGES-1 HTRF assay (inhibition of PGE2 formation from PGH2)
experimental-parameters: HTRF assay
recorded-metric: IC50 (nM)

# smiles-representation, unit-string, recorded-result
data = [
    ("CC(C)(C)C(=O)NCc1ccc(Cl)c(Nc2nc3cc(C(=O)Nc4ccc(Br)cc4)c(OCC(F)F)cc3n2CC(F)F)c1", "nM", 5),
    ("Cn1c(Nc2cc(CNC(=O)C(C)(C)C)ccc2Cl)nc2cc(C(=O)Nc3ccc(F)c(Cl)c3)c(OCC(F)F)cc21", "nM", 1),
    ("COc1cc2[nH]c(Nc3cc(CNC(=O)OC(C)(C)C)ccc3C(F)(F)F)nc2cc1C(=O)N[C@H]1CC[C@H](C(F)(F)F)CC1", "nM", 4),
    ("Cn1c(Nc2cc(CNC(=O)c3c(F)cccc3Cl)ccc2Cl)nc2cc(C(=O)Nc3ccc(Br)cc3)c(OCC(F)F)cc21", "nM", 4),
    ("O=C(NCC1CC1)c1cc2nc(Nc3cc(CNC(=O)C4(C(F)(F)F)CC4)ccc3Cl)[nH]c2cc1OCC(F)F", "nM", 3),
    ("Cn1c(Nc2cc(CNC(=O)C3(C(F)(F)F)CC3)ccc2Cl)nc2cc(C(=O)NC3CCC(F)(F)CC3)c(OCC(F)F)cc21", "nM", 1),
    ("COc1cc2[nH]c(Nc3cc(CNC(=O)C4(O)CC4)ccc3C(F)(F)F)nc2cc1C(=O)N[C@H]1CC[C@H](C(F)(F)F)CC1", "nM", 3),
    ("CC(C)(C)C(=O)NCc1ccc(C(F)(F)F)c(Nc2nc3cc(C(=O)N[C@H]4CC[C@H](C(F)(F)F)CC4)c(OCC(F)F)cc3[nH]2)c1", "nM", 1),
    ("Cn1c(Nc2cc(CNC(=O)C3(C(F)(F)F)CC3)ccc2C(F)(F)F)nc2cc(C(=O)Nc3ccc(Br)cc3)c(OCC(F)F)cc21", "nM", 3),
    ("Cn1c(Nc2cc(CNC(=O)C(C)(F)F)ccc2Cl)nc2cc(C(=O)Nc3ccc(Br)cc3)c(OCC(F)F)cc21", "nM", 3),
    ("COCCn1c(Nc2cc(CNC(=O)C3(C(F)(F)F)CC3)ccc2Cl)nc2cc(C(=O)Nc3ccc(Br)cc3)ccc21", "nM", 2),
    ("Cn1c(Nc2cc(CNC(=O)C3(C(F)(F)F)CC3)c(F)cc2Cl)nc2cc(C(=O)Nc3ccc(Br)cc3)c(OCC(F)F)cc21", "nM", 2),
    ("Cn1c(Nc2cc(CNC(=O)C3(C(F)(F)F)CC3)ccc2Cl)nc2cc(C(=O)Nc3ccc(Br)cc3)c(OCC(F)F)cc21", "nM", 2),
]

---

assay-target: recombinant human mPGES-1 (Homo sapiens, UniProt O14684)
test-description: mPGES-1 HTRF assay (inhibition of PGE2 formation from PGH2)
experimental-parameters: HTRF assay
Threshold 3 nM. IC50 below it: True. IC50 at it or above: False.

# compound, assay-target, cat
records = [
    ("COc1cc2c(cc1C(=O)NCC1CC1)nc(Nc1cc(CNC(=O)C3(C(F)(F)F)CC3)ccc1Cl)n2C [Example 64]", "recombinant human mPGES-1 (Homo sapiens, UniProt O14684)", "True"),
    ("Cn1c(Nc2cc(CNC(=O)C(C)(C)C)ccc2C(F)(F)F)nc2cc(C(=O)N[C@H]3CC[C@H](C(F)(F)F)CC3)c(OCC(F)F)cc21 [Example 95]", "recombinant human mPGES-1 (Homo sapiens, UniProt O14684)", "True"),
    ("Cn1c(Nc2cc(CNC(=O)C3CC3)ccc2Cl)nc2cc(C(=O)Nc3ccc(Br)cc3)c(OCC(F)F)cc21 [Example 80]", "recombinant human mPGES-1 (Homo sapiens, UniProt O14684)", "False"),
    ("COc1ccc(CNC(=O)C(C)(C)C)cc1Nc1nc2cc(C(=O)N[C@H]3CC[C@H](C(F)(F)F)CC3)c(Cl)cc2[nH]1 [Example 99]", "recombinant human mPGES-1 (Homo sapiens, UniProt O14684)", "False"),
    ("COc1cc2[nH]c(Nc3cc(CNC(=O)C(N)C(F)(F)F)ccc3C(F)(F)F)nc2cc1C(=O)N[C@H]1CC[C@H](C(F)(F)F)CC1 (stereo partly shown) [Example 92]", "recombinant human mPGES-1 (Homo sapiens, UniProt O14684)", "False"),
    ("Cn1c(Nc2cc(CNC(=O)C(C)(C)C)ccc2Cl)nc2cc(C(=O)N[C@H]3CC[C@H](C(F)(F)F)CC3)c(OCCF)cc21 [Example 97]", "recombinant human mPGES-1 (Homo sapiens, UniProt O14684)", "False"),
    ("Cn1c(Nc2cc(CNC(=O)C3(C(F)(F)F)CC3)c(F)cc2Cl)nc2cc(C(=O)N[C@H]3CC[C@H](C(F)(F)F)CC3)c(OCC(F)F)cc21 [Example 84]", "recombinant human mPGES-1 (Homo sapiens, UniProt O14684)", "False"),
    ("Cn1c(Nc2cc(CNC(=O)C(C)(C)C)ccc2Cl)nc2cc(C(=O)N[C@H]3CC[C@H](C(F)(F)F)CC3)c(OCC(F)(F)F)cc21 [Example 98]", "recombinant human mPGES-1 (Homo sapiens, UniProt O14684)", "False"),
    ("Cn1c(Nc2cc(CNC(=O)C(C)(C)C)ccc2Cl)nc2cc(C(=O)NCC#Cc3ccccc3)c(OCC(F)F)cc21 [Example 90]", "recombinant human mPGES-1 (Homo sapiens, UniProt O14684)", "True"),
]

---

assay-target: recombinant human mPGES-1 (Homo sapiens, UniProt O14684)
test-description: mPGES-1 HTRF assay (inhibition of PGE2 formation from PGH2)
experimental-parameters: HTRF assay

# compound, IC50
rows = [
    ("COc1cc2[nH]c(Nc3cc(CNC(=O)C4(C(F)(F)F)CC4)ccc3Cl)nc2cc1C(=O)Nc1ccc(Br)cc1", "1 nM"),
    ("Cn1c(Nc2cc(CN[S+]([O-])C(C)(C)C)ccc2Cl)nc2cc(C(=O)Nc3ccc(Br)cc3)c(OCC(F)F)cc21 (centres unmarked)", "2 nM"),
    ("Cn1c(Nc2cc(CNC(=O)C(C)(C)C)ccc2Cl)nc2cc(C(=O)Nc3ccc(Br)cc3)ccc21", "1 nM"),
    ("COc1cc2c(cc1C(N)=O)nc(Nc1cc(CNC(=O)C3(C(F)(F)F)CC3)ccc1Cl)n2C", "300 nM"),
    ("Cn1c(Nc2cc(CNC(=O)C(C)(C)C(F)(F)F)ccc2Cl)nc2cc(C(=O)Nc3ccc(Br)cc3)c(OCC(F)F)cc21", "4 nM"),
]

---

assay-target: recombinant human mPGES-1 (Homo sapiens)
Construct: made in house; host or cells: Rosetta E. coli (membrane/microsome fraction)
Sequence (O14684 1-152): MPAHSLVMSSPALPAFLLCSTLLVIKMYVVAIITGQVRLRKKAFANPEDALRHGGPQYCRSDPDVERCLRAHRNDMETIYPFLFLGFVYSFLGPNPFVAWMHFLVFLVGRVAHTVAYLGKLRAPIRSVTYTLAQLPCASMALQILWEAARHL
test-description: mPGES-1 HTRF assay (inhibition of PGE2 formation from PGH2)
Type: biochemical
experimental-parameters: compound concentration of 10 μM, HTRF assay; read-out: % inhibition
Entries and their inhibition at 10 µM
recorded-metric: inhibition at 10 µM

# molecule, recorded-result
rows = [
    ("Cn1c(Nc2cc(CNC(=O)C3(C)CCC(F)(F)CC3)ccc2Cl)nc2cc(C(=O)Nc3ccc(Br)cc3)ccc21", "94%"),
    ("Cn1c(Nc2cc(CNC(=O)C3(C)CCCCC3)ccc2Cl)nc2cc(C(=O)NCc3ccccn3)ccc21", "100%"),
    ("Cn1c(Nc2cc(CNC(=O)C3(C(F)(F)F)CC3)ccc2Cl)nc2cc(C(=O)Nc3ccc(Br)cc3)ccc21", "100%"),
    ("CC1(C(=O)NCc2ccc(Cl)c(Nc3nc4ccc(C(=O)NC5CCCC5)cc4[nH]3)c2)CCCCC1", "100%"),
    ("Cn1c(Nc2cc(CNS(=O)(=O)C3CC3)ccc2Cl)nc2cc(C(=O)Nc3ccc(Br)cc3)ccc21", "100%"),
    ("Cn1c(Nc2cc(CNC(=O)C3(C)CCCCC3)ccc2Cl)nc2cc(Cl)c(NC(=O)c3ccc(Br)cc3)cc21", "99%"),
    ("Cn1c(Nc2cc(CNC(=O)C3(C)COC3)ccc2Cl)nc2cc(C(=O)Nc3ccc(Br)cc3)ccc21", "98%"),
    ("Cn1c(Nc2cc(CNC(=O)C3CCCO3)ccc2Cl)nc2cc(C(=O)NCC3CCCCC3)ccc21 (stereo not drawn)", "100%"),
    ("Cn1c(Nc2cc(CNC(=O)C3(C)CCCC3)ccc2Cl)nc2cc(C(=O)Nc3ccc(Br)cc3)ccc21", "100%"),
    ("Cn1c(Nc2cc(CNC(=O)C3(C)CCCCC3)ccc2Cl)nc2cc(C(=O)NC3CCCC3)c(Cl)cc21", "100%"),
    ("Cn1c(Nc2cc(CNC(=O)C3(C)CCCCC3)ccc2Cl)nc2cc(C(=O)NCC3CCCCC3)ccc21", "80%"),
    ("Cn1c(Nc2cc(CNC(=O)C3(C)CCCCC3)ccc2Cl)nc2cc(Cl)c(NC(=O)OC(C)(C)C)cc21", "100%"),
    ("Cn1c(Nc2cc(CNC(=O)C3(C#N)CC3)ccc2Cl)nc2cc(C(=O)Nc3ccc(Br)cc3)ccc21", "100%"),
    ("Cn1c(Nc2cc(CNC(=O)C3(C)CCCCC3)ccc2Cl)nc2cc(C(=O)NC3CCCC3)ccc21", "100%"),
    ("Cn1c(Nc2cc(CNC(=O)C3(C)CC3)ccc2Cl)nc2cc(C(=O)NCC3CCCCC3)ccc21", "98%"),
    ("Cn1c(Nc2cc(CNC(=O)C3(C#N)CCCC3)ccc2Cl)nc2cc(C(=O)Nc3ccc(Br)cc3)ccc21", "100%"),
    ("Cn1c(Nc2cc(CNC(=O)C3(C(F)(F)F)CC3)ccc2Cl)nc2cc(C(=O)NCC3CC3)ccc21", "100%"),
    ("Cn1c(Nc2cc(CNC(=O)C3(C)CCCCC3)ccc2Cl)nc2cc(C(=O)NCCOC(C)(C)C)ccc21", "99%"),
    ("Cn1c(Nc2cc(CNC(=O)C3(C)CCCO3)ccc2Cl)nc2cc(C(=O)Nc3ccc(Br)cc3)ccc21 (stereo not drawn)", "100%"),
    ("Cn1c(Nc2cc(CNC(=O)[C@@H]3C[C@H]3c3ccccc3)ccc2Cl)nc2cc(C(=O)Nc3ccc(Br)cc3)ccc21", "100%"),
    ("CN1CCCC1CCNC(=O)c1ccc2c(c1)nc(Nc1cc(CNC(=O)C3(C(F)(F)F)CC3)ccc1Cl)n2C (stereo not drawn)", "68%"),
]
